Would you mind telling me the reported IC50 of each entry?
measurement_target: Human recombinant CETP (Homo sapiens, UniProt P11597)
Sequence (P11597 18-493): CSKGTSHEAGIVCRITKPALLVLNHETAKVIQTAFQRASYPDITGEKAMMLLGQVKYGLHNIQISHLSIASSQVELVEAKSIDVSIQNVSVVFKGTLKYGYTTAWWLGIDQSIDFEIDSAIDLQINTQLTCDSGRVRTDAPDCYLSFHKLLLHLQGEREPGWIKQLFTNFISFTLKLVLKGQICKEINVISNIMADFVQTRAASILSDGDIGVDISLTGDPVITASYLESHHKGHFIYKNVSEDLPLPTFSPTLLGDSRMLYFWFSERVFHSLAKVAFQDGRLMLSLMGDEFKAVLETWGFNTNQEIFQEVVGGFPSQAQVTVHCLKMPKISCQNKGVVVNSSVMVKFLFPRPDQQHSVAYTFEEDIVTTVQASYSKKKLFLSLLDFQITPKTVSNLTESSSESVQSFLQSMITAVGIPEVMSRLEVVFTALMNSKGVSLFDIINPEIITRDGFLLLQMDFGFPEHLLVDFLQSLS
protocol_details: Assay of CETP Inhibition Using Purified Components (Reconstituted Buffer Assay)
condition_context: transfer of [3H]CE from HDL to LDL; 2 hours at 37° C.
Numbers only, in µM.

Example entries and their recorded answers appear below.
molecule="CCCC(O)CN(Cc1cccc(OC(F)(F)F)c1)Cc1cccc(OC(F)(F)F)c1 (stereo not drawn)" measurement_target="Human recombinant CETP (Homo sapiens, UniProt P11597)" endpoint=IC50 measurement=30
molecule="OC(CN(Cc1cccc(OC(F)(F)F)c1)c1cccc(Oc2ccccc2)c1)c1ccccc1 (stereo not drawn)" measurement_target="Human recombinant CETP (Homo sapiens, UniProt P11597)" endpoint=IC50 measurement=44
molecule="OCC(c1ccc(C(F)(F)F)cc1)N(Cc1cccc(OC(F)(F)F)c1)c1cccc(Oc2ccccc2)c1 (stereo not drawn)" measurement_target="Human recombinant CETP (Homo sapiens, UniProt P11597)" endpoint=IC50 measurement=6
molecule="OC1CCCCC1N(Cc1cccc(OC(F)(F)F)c1)c1cccc(Oc2ccccc2)c1 (stereo not drawn)" measurement_target="Human recombinant CETP (Homo sapiens, UniProt P11597)" endpoint=IC50 measurement=15

Respectfully, I request IC50 for each entry included below.
1. CC(O)CN(Cc1cccc(OC(F)(F)F)c1)Cc1cccc(OC(F)(F)F)c1 (stereo not drawn)
2. COC(=O)C(C)(O)CN(Cc1cccc(OC(F)(F)F)c1)c1cccc(Oc2ccccc2)c1 (stereo not drawn)

*A*
[90, 24]

---

Provide the reported pIC50 of each item.
measurement_target: Human recombinant CETP (Homo sapiens, UniProt P11597)
Sequence (P11597 18-493): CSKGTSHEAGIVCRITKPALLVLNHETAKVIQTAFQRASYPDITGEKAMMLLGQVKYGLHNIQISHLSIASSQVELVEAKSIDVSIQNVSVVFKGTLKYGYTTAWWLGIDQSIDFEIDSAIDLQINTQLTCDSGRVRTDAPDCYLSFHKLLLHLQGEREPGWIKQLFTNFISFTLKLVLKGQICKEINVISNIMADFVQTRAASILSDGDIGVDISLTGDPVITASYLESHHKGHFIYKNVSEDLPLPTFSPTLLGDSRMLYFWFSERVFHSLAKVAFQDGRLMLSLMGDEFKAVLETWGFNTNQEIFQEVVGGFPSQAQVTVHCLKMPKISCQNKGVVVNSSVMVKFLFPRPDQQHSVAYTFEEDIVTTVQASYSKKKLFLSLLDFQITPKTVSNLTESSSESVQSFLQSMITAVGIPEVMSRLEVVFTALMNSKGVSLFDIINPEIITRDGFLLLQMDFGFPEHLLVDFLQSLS
protocol_details: Assay of CETP Inhibition Using Purified Components (Reconstituted Buffer Assay)
condition_context: transfer of [3H]CE from HDL to LDL; 2 hours at 37° C.
pIC50: −log10 of the molar value.

Study these solved cases before continuing.
compound="OC(COCc1ccco1)CN(Cc1cccc(OC(F)(F)F)c1)c1cccc(Oc2ccccc2)c1 (centres unmarked) [Example 7]" measurement_target="Human recombinant CETP (Homo sapiens, UniProt P11597)" endpoint=pIC50 measurement="< 4.00"
compound="CCOC(=O)C(O)CN(Cc1cccc(OC(F)(F)F)c1)Cc1cccc(OC(F)(F)F)c1 (centres unmarked) [compound 15]" measurement_target="Human recombinant CETP (Homo sapiens, UniProt P11597)" endpoint=pIC50 measurement="< 4.00"
compound="OC(CN(Cc1cccc(OC(F)(F)F)c1)c1cccc(Oc2ccccc2)c1)c1ccc(C(F)(F)F)cc1 (centres unmarked) [EX-1A]" measurement_target="Human recombinant CETP (Homo sapiens, UniProt P11597)" endpoint=pIC50 measurement=4.74

Parameter requested: pIC50. Apply to each item below.
1. OC(COc1ccc(Cl)cc1)CN(Cc1cccc(OC(F)(F)F)c1)c1cccc(Oc2ccccc2)c1 (centres unmarked) [Example 6]
2. C=CC(O)CN(Cc1cccc(OC(F)(F)F)c1)c1cccc(Oc2ccccc2)c1 (centres unmarked) [Example 4]
3. COCC(O)CN(Cc1cccc(OC(F)(F)F)c1)Cc1cccc(OC(F)(F)F)c1 (centres unmarked) [compound 13]
4. OC(CN(Cc1cccc(OC(F)(F)C(F)F)c1)c1cccc(Oc2ccccc2)c1)c1ccccc1 (centres unmarked) [Example 10]
5. OC(COc1ccc(Cl)cc1)CN(Cc1cccc(OC(F)(F)F)c1)Cc1cccc(OC(F)(F)F)c1 (centres unmarked) [compound 18]

*A*
1. < 4.00
2. < 4.30
3. 4.10
4. 4.24
5. < 4.00

---

measurement_target: Human recombinant CETP (Homo sapiens, UniProt P11597)
protocol_details: Assay of CETP Inhibition Using Purified Components (Reconstituted Buffer Assay)
condition_context: transfer of [3H]CE from HDL to LDL; 2 hours at 37° C.
pIC50: −log10 of the molar value.
endpoint: pIC50

compound=FC(F)(F)Oc1cccc(CN(CCc2ccc(C(F)(F)F)cc2)c2cccc(Oc3ccccc3)c2)c1 measurement_target="Human recombinant CETP (Homo sapiens, UniProt P11597)" endpoint=pIC50 measurement="< 4.00"
compound="FC(CN(Cc1cccc(OC(F)(F)F)c1)c1cccc(Oc2ccccc2)c1)c1ccc(C(F)(F)F)cc1 (stereo not drawn)" measurement_target="Human recombinant CETP (Homo sapiens, UniProt P11597)" endpoint=pIC50 measurement="< 4.00"

In the following, a different compound is considered.
*Q* Endpoint output: pIC50 of OC(Cc1ccccc1)CN(Cc1cccc(OC(F)(F)F)c1)c1cccc(Oc2ccccc2)c1 (stereo not drawn) . Value?
*A* < 4.30
